Target: Sodium channel protein type 9 subunit alpha (Homo sapiens, UniProt Q15858)
Sequence (Q15858 whole entry): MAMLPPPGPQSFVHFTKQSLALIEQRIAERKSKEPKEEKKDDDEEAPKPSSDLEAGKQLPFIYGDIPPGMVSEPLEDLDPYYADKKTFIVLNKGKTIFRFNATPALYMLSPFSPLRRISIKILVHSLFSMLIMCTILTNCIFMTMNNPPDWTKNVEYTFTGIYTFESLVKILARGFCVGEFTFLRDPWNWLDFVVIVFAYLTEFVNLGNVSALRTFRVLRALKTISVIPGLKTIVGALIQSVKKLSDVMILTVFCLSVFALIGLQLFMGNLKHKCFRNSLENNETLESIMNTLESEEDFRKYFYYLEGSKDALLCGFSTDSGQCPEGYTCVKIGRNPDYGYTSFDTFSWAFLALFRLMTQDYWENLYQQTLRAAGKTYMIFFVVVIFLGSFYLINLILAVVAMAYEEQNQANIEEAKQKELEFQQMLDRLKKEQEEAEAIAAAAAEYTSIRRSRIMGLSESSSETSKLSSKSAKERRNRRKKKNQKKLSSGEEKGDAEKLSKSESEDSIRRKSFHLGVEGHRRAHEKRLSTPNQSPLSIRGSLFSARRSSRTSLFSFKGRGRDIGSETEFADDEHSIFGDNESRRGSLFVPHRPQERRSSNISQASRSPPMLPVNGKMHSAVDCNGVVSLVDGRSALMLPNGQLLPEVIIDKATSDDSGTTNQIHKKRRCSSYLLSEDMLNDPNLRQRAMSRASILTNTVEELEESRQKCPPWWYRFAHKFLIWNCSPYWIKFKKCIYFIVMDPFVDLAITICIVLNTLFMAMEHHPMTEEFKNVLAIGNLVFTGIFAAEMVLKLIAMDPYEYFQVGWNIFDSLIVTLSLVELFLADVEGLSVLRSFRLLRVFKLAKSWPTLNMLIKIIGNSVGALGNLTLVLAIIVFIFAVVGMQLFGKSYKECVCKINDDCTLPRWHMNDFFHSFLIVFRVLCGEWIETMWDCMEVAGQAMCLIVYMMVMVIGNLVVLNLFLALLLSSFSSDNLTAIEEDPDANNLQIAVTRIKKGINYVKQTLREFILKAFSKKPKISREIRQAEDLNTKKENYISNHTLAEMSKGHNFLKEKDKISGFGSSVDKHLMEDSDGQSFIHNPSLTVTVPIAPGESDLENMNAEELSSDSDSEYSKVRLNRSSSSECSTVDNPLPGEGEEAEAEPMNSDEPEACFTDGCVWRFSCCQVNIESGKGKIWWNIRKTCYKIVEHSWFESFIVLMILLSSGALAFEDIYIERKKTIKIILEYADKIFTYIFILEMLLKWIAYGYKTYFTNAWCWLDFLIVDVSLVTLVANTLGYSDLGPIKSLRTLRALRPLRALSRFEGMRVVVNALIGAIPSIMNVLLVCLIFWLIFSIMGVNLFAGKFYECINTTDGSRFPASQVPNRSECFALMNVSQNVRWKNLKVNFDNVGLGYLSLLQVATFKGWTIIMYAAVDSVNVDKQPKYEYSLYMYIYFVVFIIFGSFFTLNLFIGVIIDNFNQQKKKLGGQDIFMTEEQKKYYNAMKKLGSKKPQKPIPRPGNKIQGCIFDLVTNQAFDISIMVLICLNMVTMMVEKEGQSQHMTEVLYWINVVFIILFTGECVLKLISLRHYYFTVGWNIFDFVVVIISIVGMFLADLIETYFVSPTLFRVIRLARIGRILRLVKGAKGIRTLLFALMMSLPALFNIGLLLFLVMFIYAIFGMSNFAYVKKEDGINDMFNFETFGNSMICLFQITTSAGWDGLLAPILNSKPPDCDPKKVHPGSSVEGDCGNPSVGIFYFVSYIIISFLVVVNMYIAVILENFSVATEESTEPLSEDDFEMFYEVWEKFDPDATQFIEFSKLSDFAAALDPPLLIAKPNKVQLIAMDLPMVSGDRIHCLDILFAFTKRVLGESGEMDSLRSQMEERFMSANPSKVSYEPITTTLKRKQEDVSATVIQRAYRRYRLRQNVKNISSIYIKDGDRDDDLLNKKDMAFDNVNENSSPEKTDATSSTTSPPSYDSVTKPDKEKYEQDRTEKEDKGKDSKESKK
Assay: Inhibition of human Nav1.7 expressed in HEK293 cells after 600 secs at -60 mV holding potential by ion works barracuda population patch clamp method
Type: cell-based
pIC50: −log10 of the molar value.
measured-endpoint: pIC50

>>> measured_result("Cn1nc(-c2ccc(C(F)(F)F)cc2)c2cc(F)c(C(=O)NS(C)(=O)=O)cc21")
7.28
>>> measured_result("CC(C)COc1ccc(-c2cn(C)c3cc(C(=O)NS(C)(=O)=O)ccc23)cc1")
6.28
>>> measured_result("Cn1cc(-c2ccc(C(F)(F)F)cc2)c2ccc(C(=O)NS(C)(=O)=O)nc21")
5.52
>>> measured_result("CC(C)COc1ccc(-c2cn(C)c3cc(C(=O)NS(C)(=O)=O)c(F)cc23)cn1")
7.05
>>> measured_result("CC(C)COc1ncc(-c2cn(C)c3cc(C(=O)NS(=O)(=O)C4CC4)cnc23)cc1Cl")
5.70
>>> measured_result("CC(C)COc1ncc(-c2cn(C)c3nc(C(=O)NS(C)(=O)=O)ccc23)cc1Cl")
5.85

Data origin: ChEMBL document CHEMBL4371076
